- test description: Pharmacokinetic study: plasma, blood and quadriceps Givinostat levels after single oral dose (LC-MS/MS)
- Type: in vivo, mdx mice (C57BL/10ScSn-Dmd^mdx/J)
- experimental context: male, C57BL/10ScSn-Dmd^mdx/J (mdx), mouse, plasma, po, 10 mg/kg, plasma, 10 mg/kg single oral dose, mdx mice; read-out: Cmax
reported endpoint: Cmax

Would you kindly share the measured Cmax for CCN(CC)Cc1ccc2cc(COC(=O)Nc3ccc(C(=O)NO)cc3)ccc2c1 ?
96.7 ng/mL

* * *

- test description: Pharmacokinetic study: plasma, blood and quadriceps Givinostat levels after single oral dose (LC-MS/MS)
- Assay type: in vivo, mdx mice (C57BL/10ScSn-Dmd^mdx/J)
- experimental context: male, C57BL/10ScSn-Dmd^mdx/J (mdx), mouse; blood, 37.5 mg/kg single oral dose, mdx mice
reported endpoint: Tmax (min)
Unit min implied. Number only.

Would you kindly share the measured Tmax for CCN(CC)Cc1ccc2cc(COC(=O)Nc3ccc(C(=O)NO)cc3)ccc2c1 [Givinostat] ?
30

* * *

- test description: Pharmacokinetic study: plasma, blood and quadriceps Givinostat levels after single oral dose (LC-MS/MS)
- Assay type: in vivo, mdx mice (C57BL/10ScSn-Dmd^mdx/J)
- experimental context: male, C57BL/10ScSn-Dmd^mdx/J (mdx), mouse, quadriceps muscle, po, 37.5 mg/kg, muscle (quadriceps), 37.5 mg/kg single oral dose, mdx mice; read-out: Cmax
reported endpoint: Cmax (ng/g)
Unit ng/g implied. Number only.

Would you kindly share the measured Cmax for CCN(CC)Cc1ccc2cc(COC(=O)Nc3ccc(C(=O)NO)cc3)ccc2c1 ?
1180

* * *

- test description: Pharmacokinetic study: plasma, blood and quadriceps Givinostat levels after single oral dose (LC-MS/MS)
- Format: in vivo, mdx mice (C57BL/10ScSn-Dmd^mdx/J)
- experimental context: male, C57BL/10ScSn-Dmd^mdx/J (mdx), mouse; blood, 37.5 mg/kg single oral dose, mdx mice
reported endpoint: AUC (ng·h/mL)
Unit ng·h/mL implied. Number only.

Would you kindly share the measured AUC for CCN(CC)Cc1ccc2cc(COC(=O)Nc3ccc(C(=O)NO)cc3)ccc2c1 ?
2180

* * *

- test description: Pharmacokinetic study: plasma, blood and quadriceps Givinostat levels after single oral dose (LC-MS/MS)
- Assay type: in vivo, mdx mice (C57BL/10ScSn-Dmd^mdx/J)
- experimental context: male, C57BL/10ScSn-Dmd^mdx/J (mdx), mouse, quadriceps muscle, po, 10 mg/kg, muscle (quadriceps), 10 mg/kg single oral dose, mdx mice; read-out: Cmax
reported endpoint: Cmax (ng/g)
Unit ng/g implied. Number only.

Would you kindly share the measured Cmax for CCN(CC)Cc1ccc2cc(COC(=O)Nc3ccc(C(=O)NO)cc3)ccc2c1 ?
197

* * *

- test description: Pharmacokinetic study: plasma, blood and quadriceps Givinostat levels after single oral dose (LC-MS/MS)
- Format: in vivo, mdx mice (C57BL/10ScSn-Dmd^mdx/J)
- experimental context: male, C57BL/10ScSn-Dmd^mdx/J (mdx), mouse; blood, 5 mg/kg single oral dose, mdx mice
reported endpoint: AUC (ng·h/mL)
Unit ng·h/mL implied. Number only.

Would you kindly share the measured AUC for CCN(CC)Cc1ccc2cc(COC(=O)Nc3ccc(C(=O)NO)cc3)ccc2c1 [Givinostat] ?
156

* * *

- test description: Pharmacokinetic study: plasma, blood and quadriceps Givinostat levels after single oral dose (LC-MS/MS)
- Type: in vivo, mdx mice (C57BL/10ScSn-Dmd^mdx/J)
- experimental context: male, C57BL/10ScSn-Dmd^mdx/J (mdx), mouse, blood and plasma; 25 mg/kg single oral dose, mdx mice; read-out: AUCtot Blood/Plasma ratio
reported endpoint: blood plasma ratio

Would you kindly share the measured blood plasma ratio for CCN(CC)Cc1ccc2cc(COC(=O)Nc3ccc(C(=O)NO)cc3)ccc2c1 [Givinostat] ?
1.5
